Readings of cGAS 100 nM for the listed sequences
molecular target: cGAS (Homo sapiens, UniProt Q8N884); test: ISD70-driven IP-10 (and IFN-β) production in THP-1 cells, ELISA; format: cell-based; parameters: endogenous in cells; host or cells: THP-1 (undifferentiated); details: MOE-modified ASO at 100 nM; averaged IP-10 levels relative to ISD70 condition
Sequence (Q8N884 whole entry): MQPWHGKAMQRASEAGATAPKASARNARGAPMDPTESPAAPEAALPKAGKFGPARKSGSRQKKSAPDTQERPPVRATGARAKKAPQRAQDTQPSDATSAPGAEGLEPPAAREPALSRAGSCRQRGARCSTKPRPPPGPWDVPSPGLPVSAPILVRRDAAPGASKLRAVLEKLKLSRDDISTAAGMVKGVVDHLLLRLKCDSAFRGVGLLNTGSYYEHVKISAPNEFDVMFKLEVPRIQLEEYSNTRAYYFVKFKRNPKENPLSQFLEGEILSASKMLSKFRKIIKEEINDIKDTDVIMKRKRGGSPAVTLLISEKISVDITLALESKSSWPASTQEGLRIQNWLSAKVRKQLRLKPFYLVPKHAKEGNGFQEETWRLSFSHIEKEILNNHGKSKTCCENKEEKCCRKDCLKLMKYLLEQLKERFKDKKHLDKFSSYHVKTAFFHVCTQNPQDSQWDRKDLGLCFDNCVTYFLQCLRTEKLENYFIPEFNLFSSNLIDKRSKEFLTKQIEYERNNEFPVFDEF
QUANTITY NAME: cGAS 100 nM

input_sequence="TTGCCATGCTGGCTCGGACT (antisense; 2'-MOE modified, pattern not given here) [CAMSAP1-2584 MOE]" quantity_name="cGAS 100 nM" measured=0.518
input_sequence="AGTCGTAGTTGCTTCCTAAC (antisense; 2'-MOE modified, pattern not given here) [MB21D1-1181 MOE]" quantity_name="cGAS 100 nM" measured=0.261
input_sequence="AGGTCTTGGCTTCGTGGAGC (antisense; 2'-MOE modified, pattern not given here) [MB21D1-522 MOE]" quantity_name="cGAS 100 nM" measured=0.118
input_sequence="TAGGCACTTTGCCTCCTTCT (antisense; 2'-MOE modified, pattern not given here) [EGFR-2859 MOE]" quantity_name="cGAS 100 nM" measured=0.378
